These data points were gathered from paper PMC3039689.

Tested on: HepG2 cells
Experiment: Cell toxicity (CC50) in the HepG2 cell line, CellTiter-Glo
Assay type: cell-based, human
Details: HepG2 cell line, 24 h, ATP luminescence; compound from screened library; read-out: HepG2 CC50 Mean
Collected CC50 values appear next to each entry.
The answer is to be given in µM; state only the numeric part.

| Molecule | CC50 / µM |
| --- | --- |
| C=C1C(=O)O[C@@H]2[C@H]1CC[C@H](C)[C@]1(O)C=CC(=O)[C@@]21C | 64.5 |
| CC[C@@H](C(=O)[C@@H](C)[C@@H](O)[C@H](C)[C@@H]1O[C@@H]([C@@H](CC)C(=O)O)CC[C@@H]1C)[C@H]1O[C@]2(C=C[C@@H](O)[C@]3(CC[C@@](C)([C@H]4CC[C@](O)(CC)[C@H](C)O4)O3)O2)[C@H](C)C[C@@H]1C [Salinomycin, Sodium] | 48.4 |
| c1ccc2c(c1)Sc1ccccc1N2CC1CN2CCC1CC2 (stereo not shown) | 50.3 |
| OC(c1cc(-c2ccc(Cl)cc2)nc2ccccc12)C1CCCCN1 (stereo not shown) | 38.4 |
| OC(c1cc(-c2ccccc2)nc2c1ccc1ccccc12)C1CCCCN1 (stereo not shown) | 28.7 |

# next molecule below
Per the record, CC(C)=CC(=O)O[C@H]1[C@H]2[C@H](OC(=O)[C@H]2C)[C@H](O)[C@@H](C)[C@@H]2C=CC(=O)[C@]21C has CC50 of 44.8

---

Test system: luciferase-transfected Leishmania donovani
Test: Anti-leishmanial efficacy (EC50) in the ex vivo splenic explant model
Assay type: cell-based
Conditions: Leishmania donovani; ex vivo splenic explant, 48 h, luminometry; at least two experiments; compound from screened library; read-out: Ex vivo model EC50 Mean
Method: To establish the plate assay for drug screening, the spleens from 2 infected hamsters were aseptically removed and placed in a Petri dish containing 5 mL of Collagenase D (Roche) at 2 mg/mL of buffer (10 mM Hepes pH 7.4, 150 mM NaCl, 5 mM KCl, 1 mM MgCl2, 1.8 mM CaCl2). […] The anti-leishmanial efficacy of the compounds was determined using the splenic explant model in a 96-well plate format. […] The number of surviving parasites was determined by luminometry as described above.
Where a name gives a salt, the structure may show the parent alone.
Listing: pEC50 of selected compounds
The scale used: pEC50 is minus the common logarithm of the concentration in molar units.

| Compound | pEC50 |
| --- | --- |
| CCN(CC)C(=S)SSC(=S)N(CC)CC [Disulfiram] | 5.09 |

GET /value?item= C[C@@H]1C[C@H]2CC[C@H](O2)[C@H](C)C(=O)O[C@@H](C)C[C@@H]2CC[C@@H](O2)[C@@H](C)C(=O)O[C@H](C)C[C@H]2CC[C@H](O2)[C@H](C)C(=O)O[C@@H](C)C[C@@H]2CC[C@@H](O2)[C@@H](C)C(=O)O1 [Nonactin] &field=pEC50 returns 7.00

What the record says about CN(C)CCCN1c2ccccc2Sc2ccc3ccccc3c21 : pEC50 is 4.94

For this compound ( O=C1C=C2C=C[C@@H]3C[C@@]2(O1)[C@H]1CCCCN31 [Securinine] ), measured pEC50 is 5.21

CN(C)CCCNc1c2c(nc3ccc(Cl)cc13)CCCC2 yielded pEC50 of 5.19

Please fill in: pEC50 reported for Cc1nccc2c1[nH]c1cc(O)ccc12 [Harmol Hydrochloride] = 4.95

So, [H]/N=C(\N/C(=N/[H])NCCCCCCNC(=N)NC(=N)Nc1ccc(Cl)cc1)Nc1ccc(Cl)cc1 [Chlorhexidine] ? Its pEC50 was 4.99

Entry under test: CC[C@@]1(O)C[C@H](O[C@H]2C[C@H](N(C)C)[C@H](O)[C@H](C)O2)c2c(cc3c(c2O)C(=O)c2c(O)cccc2C3=O)[C@H]1C(=O)OC [Aklavine Hydrochloride] . Its pEC50 was 6.15

---

Below: a set of entries, each annotated with reported EC50.
Tested on: luciferase-transfected Leishmania donovani
Test: Anti-leishmanial efficacy (EC50) in the ex vivo splenic explant model
Assay type: cell-based
Details: Leishmania donovani; ex vivo splenic explant, 48 h, luminometry; at least two experiments; compound from screened library; read-out: Ex vivo model EC50 Mean
Give the value; after it, write the unit.

The following molecules have reported results that may help.
| Molecule | EC50 |
| --- | --- |
| C[C@]12C(=O)C=CCC1=CC[C@@H]1[C@@H]2CC[C@@]2(O)C(=O)O[C@@]3(C)[C@H]4C[C@]5(C)[C@@H](CO[C@@]16O[C@]23[C@H]5C6=O)C(=O)O4 [Physalin B] | 8.6 µM |
| COc1ccc2cc1Oc1ccc(cc1)C[C@H]1c3cc(c(OC)cc3CCN1C)Oc1c(OC)c(OC)cc3c1[C@H](C2)N(C)CC3 [Tetrandrine] | 5.6 µM |
| CN(C)CCCNc1cc(O)c2c(c1O)C(=O)c1ccccc1C2=O | 6.7 µM |

Sample CCC1=C(CC2NCCc3ccccc32)CC2c3cc(OC)c(OC)cc3CCN2C1 (stereo not shown) ; EC50 observed: 2.7 µM

Looking up CCN(CC)CCN1C(=O)c2cccc3cc(N)cc(c23)C1=O , I see its EC50 listed as 8.4 µM

Entry Cc1cc(N2CCCCC2)nc2ccc(Cc3ccc4nc(N5CCCCC5)cc(C)c4c3)cc12 — recorded EC50 = 18.4 µM

CSc1ccc2c(c1)c(CCN)c(C)n2Cc1ccccc1Cl has a reported EC50 of 9.4 µM

So for Cc1cc(O)ccc1Cl [Chlorocresol] , the logged EC50 turned out to be 8 µM

Item: CC(C)=CCNc1ncnc2nc[nH]c12 [N6-Isopentenyladenine] | EC50: 20 µM

Short answer for CN(C)CCCN1c2ccc(O)cc2Sc2ccc(Cl)cc21 [7-Hydroxychlorpromazine] : EC50 was 11 µM

---

CC50 at 24 h for assorted compounds
Experiment: Cell toxicity (CC50) in the HepG2 cell line, CellTiter-Glo
Format: cell-based, human
Conditions: human, HepG2 cells; HepG2 cell line, 24 h, ATP luminescence; compound from screened library; read-out: HepG2 CC50 Mean
Where a name gives a salt, the structure may show the parent alone.

Some compounds with recorded CC50 at 24 h:
| Compound | CC50 at 24 h |
| --- | --- |
| Cc1cc(O)ccc1Cl [Chlorocresol] | 138 µM |
| CC(C)(C)NCCC(O)c1cc(C(F)(F)F)nc2c(C(F)(F)F)cccc12 (stereo not shown) | 44.2 µM |
| Clc1ccc2c(NCCNC3CCCCC3)ccnc2c1 | 46.2 µM |
| OC1(c2ccccc2)c2ccccc2NC2=NCCN21 (stereo not shown) | 107 µM |
| Oc1c(I)cc(Cl)c2cccnc12 [Clioquinol] | 60 µM |
| CN(C)CCCNc1c2c(=O)n(C)c(=O)nc-2n(C)c2ccccc12 | 49.5 µM |
| C=C1C(=O)O[C@H]2C[C@@H]1C(OC(C)=O)C/C(C)=C/CC/C(C)=C/CC[C@@]2(C)O (stereo partly shown) [Crassin Acetate] | 41.1 µM |
| C=C1C(=O)O[C@H]2[C@H]1CC/C(C)=C/CC[C@@]1(C)O[C@@H]21 [Parthenolide] | 81.1 µM |

Briefly, CC50 at 24 h measured for Oc1ccc(Cl)c2cccnc12 [Cloxyquin] : 94.8 µM

response.value for Clc1ccc2c(NC3CCC(N4CCCCC4)CC3)ccnc2c1 (stereo not shown) (field: CC50 at 24 h) = 67.4 µM

CC50 at 24 h reading for C[C@]12CC[C@H]3[C@@H](CC=C4C[C@@H](O)CC[C@@]43C)[C@@H]1CC[C@@H]2N(CCO)CCO : 88.5 µM

Record summary for CN(C)CCCN1CCC2(CCC(C(C)(C)C)CC2)CC1 : reported CC50 at 24 h = 61.8 µM

What the record says about NCCCCNCCCN [Spermidine Trihydrochloride] : CC50 at 24 h is 132 µM

---

Assay: Cell toxicity (CC50) in the HepG2 cell line, CellTiter-Glo
Type: cell-based, human
Details: human; HepG2 cell line, 24 h, ATP luminescence; compound from screened library; read-out: HepG2 CC50 Mean
Property Measured: CC50 (µM)
Express it in µM; write the number only.

Consider the reported CC50 for these molecules:
| Molecule | CC50 (µM) |
| --- | --- |
| CC[n+]1c(-c2ccccc2)c2cc(N)ccc2c2ccc(N)cc21 [Homidium Bromide] | 58.8 |
| CN(C)CCCN1c2ccc(O)cc2Sc2ccc(Cl)cc21 [7-Hydroxychlorpromazine] | 60.1 |
| CCN(CC)CCN1C(=O)c2cccc3cc(N)cc(c23)C1=O | 69.3 |
| CCC1=C(CC2NCCc3ccccc32)CC2c3cc(OC)c(OC)cc3CCN2C1 (stereo not drawn) | 24 |
| C[C@@H]1CC[C@@]2(OC1)O[C@H]1[C@@H](O)[C@H]3[C@@H]4CC[C@H]5C[C@@H](O[C@@H]6O[C@H](CO)[C@H](O[C@@H]7O[C@H](CO)[C@@H](O)[C@H](O[C@@H]8OC[C@@H](O)[C@H](O)[C@H]8O)[C@H]7O[C@@H]7O[C@H](CO)[C@H](O)[C@H](O[C@@H]8O[C@H](CO)[C@@H](O)[C@H](O)[C@H]8O)[C@H]7O)[C@H](O)[C@H]6O)[C@H](O)C[C@]5(C)[C@H]4CC[C@]3(C)[C@H]1[C@@H]2C | 42.4 |

The value of CC50 measured for the molecule CN(C)CCCNc1cc(O)c2c(c1O)C(=O)c1ccccc1C2=O turned out to be 75.1
